Tested on: OVCAR-4 ovarian
Experiment: NCI-60 one-dose screen, 48 h (100 = growth as untreated, 0 = no growth, -100 = all killed)
Settings: 10 µM unless noted
The panel holds about 83,000 compounds, 20% with a hit somewhere; the sample as a whole holds those more often.
QUANTITY_NAME: growth (%)
Your answer should be a plain number; it is taken to be in %.

### Prompt Reported growth, molecule COc1ccc(Cn2c(Br)c3c(c2Br)-c2nc(NC(=O)c4ccc(OC)cc4)sc2CC3)cc1 : ____
### Response 49.7

### Prompt Subsequent entry: O=C1NC(=S)NC(=O)C1=Cc1cn(Cc2cn(Cc3cccc4ccccc34)nn2)c2ccccc12
### Response 92.2

### Prompt Quick one: COc1ccc(-c2nc(-c3ccccn3)c(-c3ccccn3)n2CC(C)C)cc1OC1CCCC1
### Response 13.5

### Prompt How about this molecule: O=c1oc2ccc(F)cc2c(=O)n1-c1ccc(Br)cc1F
### Response 11.9

### Prompt Now the same for COc1cc(C2CC(c3ccc(Nc4nc(NCCO)nc(N5CCOCC5)n4)cc3)=NN2c2cc(Cl)cc(Cl)c2)cc(OC)c1OC (centres undefined)
### Response 57.2

### Prompt Please give the result for CCOC(=O)c1sc(-c2ccc(OS(=O)(=O)c3cccs3)c(C=O)c2)nc1C too.
### Response 4.5

### Prompt Next entry: O=C1c2cc(I)ccc2Oc2cc([N+](=O)[O-])ccc2N1c1ccc(Cl)cc1F
### Response 79.4

### Prompt CCOc1c(Br)cc(C2C(C(=O)OC)=CN(C)C=C2C(=O)OC)cc1OC , same question.
### Response 72.9

### Prompt Now consider Cc1nc(Nc2ccccn2)sc1C(=O)/C=C/c1ccc(Cl)cc1 .
### Response 54

### Prompt Same again, this time with CCCCC1COc2cccc3c2N1C=C/C3=C\C(=O)N(C)c1ccccc1 (centres undefined)
### Response 50.7

### Prompt Quick one: O=c1oc2ccc(I)cc2c(=O)n1-c1ccc(F)cc1F
### Response 12.7

### Prompt Continue with CCOC(=O)C1=C(C)N=c2s/c(=C\c3ccccc3O)c(=O)n2C1c1ccc(OC)c2ccccc12 (centres undefined)
### Response 38.6

### Prompt Also COc1ccc(-n2c(C(O)c3ccccc3)nn(CN3CCOCC3)c2=S)cc1 (centres undefined) , if possible.
### Response 96.1

### Prompt How about this molecule: O=C(c1nc2ccccc2[nH]1)C1[C@@H](c2cccc(O)c2)C2CC3CCCCC3N2[C@@]12C(=O)Nc1cc(Cl)ccc12 (some centres undefined)
### Response 34.4

### Prompt Let us now turn to O=C(COc1cc(O)c2c(=O)cc(-c3ccccc3)oc2c1)Nc1ccccc1
### Response 78.9

### Prompt Now consider CCC(C)(C)C(=O)O[C@H]1C[C@@H](C)C=C2C=C[C@H](C)[C@H](CC[C@@H]3CC=CC(=O)O3)[C@H]21 .
### Response 106

### Prompt Same again, this time with CN1C(=O)N(C)C2C1NN=c1s/c(=C\c3ccc([N+](=O)[O-])cc3)c(=O)n12 (centres undefined)
### Response 82.2

### Prompt Query COc1cc(C(=O)Nc2ccc(-c3nc4ccccc4[nH]3)cc2)cc(OC)c1OC next
### Response 61.6

### Prompt Then what about the molecule CC(C)CCOc1ccc(-c2n[nH]c(C(F)(F)F)c2-c2cncc(C#N)c2)c(O)c1 ?
### Response 20.5

### Prompt For COc1cc(/C=C2\CCC/C(=C\c3cc(CN4CCOCC4)c(O)c(OC)c3)C2=O)cc(CN2CCOCC2)c1O then?
### Response 36.1

### Prompt // query: CCN1C(=O)N(CC)C2Nn3c(s/c(=C\c4ccccc4F)c3=O)=NC21 (centres undefined)
### Response 84.9

### Prompt Also check N#Cc1c(N)nc2c(c1N)C(c1ccc(F)cc1)c1ccc(N)cc1O2 (centres undefined)
### Response 96.7

### Prompt Let us now turn to CCOC(=O)c1cc2c(n1Cc1ccccc1)-c1oncc1CCC2
### Response 72.9

### Prompt Record: COc1ccc(-c2nc(-c3ccccc3)c(-c3ccccc3)[nH]2)cc1OC1CCCCC1
### Response 74.2

### Prompt Same for Cc1ccc2cc3c(N)c4c(C)ccc(C)c4nc3nc2c1
### Response 72.9

### Prompt Also CCc1ccc(CNCC(O)c2ccccc2)cc1 (centres undefined) , if possible.
### Response 55.3

### Prompt Now give it for C=C[C@@H]1CCC/C=C/[C@@H]2C[C@H](O)C[C@H]2[C@H](O)/C=C/C(=O)O1 too.
### Response 23.8

### Prompt Ok, now COc1ccc(CCN2C(=O)CCSC2=S)cc1OC
### Response 90.5

### Prompt Also need CCn1c(Cc2ccccc2Nc2c(Cl)cccc2Cl)nnc1SCC(=O)NN1C(=O)/C(=C/c2cccc(OC)c2OC)SC1=S , thanks.
### Response 94.2

### Prompt What do you have for CCCCCCn1c(=N)n(CC(O)COc2cccc(C)c2)c2ccccc21 (centres undefined) ?
### Response -31.9

### Prompt Input CN1C(=O)N(C)C2C1NN=c1s/c(=C\c3ccc(Cl)cc3Cl)c(=O)n12 (centres undefined)
### Response 36.9

### Prompt What about this molecule? CN1C(=O)N(C)C2C1NN=c1s/c(=C\c3c[nH]c4ccccc34)c(=O)n12 (centres undefined)
### Response 103

### Prompt Now try C#CCn1cc(C=C2C(=O)NC(=O)NC2=O)c2cc(Cl)ccc21 .
### Response 75.9

### Prompt Now consider O=C(Nc1ccc(C23CC4CC(CC(c5ccccc5)(C4)C2)C3)cc1)c1cccs1 and answer again.
### Response 58

### Prompt What do we get for NC(=O)CSc1nc(-c2ccc(F)cc2)cc(-c2ccco2)n1 ?
### Response 100

### Prompt Similarly, NCCOc1ccccc1/C=C1\c2ccccc2-c2ccc([N+](=O)[O-])cc21 ?
### Response 30.3

### Prompt Please give the result for O=c1oc2ccc(F)cc2c(=O)n1-c1ccc(F)cc1F too.
### Response 11.9

### Prompt Another: CCCCCCCCCCCCCCn1cc(C2=C(c3coc4ccc(OC)cc34)C(=O)NC2=O)c2ccccc21
### Response 102

### Prompt Now the molecule COC(=O)/C(CCC=C(C)C)=C1\[C@@H](OC(C)=O)C[C@@]2(C)[C@H]1C[C@@H](O)[C@H]1[C@@]3(C)CC[C@H](NC(=O)c4cnccn4)[C@@H](C)[C@@H]3CC[C@@]12C
### Response 98.4

Entry source: PubChem BioAssay (NCI)
